// note: IC50 values for Aldo-keto reductase family 1 member A1 (Homo sapiens, UniProt P14550) were reported in different studies
METRIC: IC50 (µM)

Below: 5 molecules and their reported IC50.
O=C(CN1C(=O)NC2(C1=O)c1ccccc1-c1ccccc12)Nc1ccc(Cl)cc1Cl :: 35.5
CC(/C=C1\SC(=S)N(CC(=O)O)C1=O)=C\c1ccccc1 :: 2.6
COc1ccc(/N=c2\oc3cc(O)ccc3cc2C(=O)Nc2ccccn2)c(OC)c1 :: 38
O=C(CN1C(=O)NC2(CCCCC2)C1=O)Nc1ccc(Br)cc1 :: 31.2
O=C(CN1C(=O)NC2(C1=O)c1ccccc1-c1ccccc12)Nc1ccc(Cl)cc1 :: 22.2

a: NC(=O)[C@@H]1C[C@]2(NC(=O)NC2=O)c2cc(F)ccc2O1
b: Cc1ccc(NC(=O)CN2C(=O)NC3(C2=O)c2ccccc2-c2ccccc23)cc1
c: CCCC(CCC)C(=O)O
Put the entries in order of IC50, starting with the largest number. Reply: labels, ordered per the request. c, b, a
(c: 50.1 µM, b: 10.9 µM, a: 1.2 µM)
